meta.source: paper PMC11859074

System: JU77 (human mesothelioma cell line)
ASSAY_DETAILS: cells
Type: cell-based
APPLIED_CONDITIONS: Homo sapiens; MTT assay, 72 h exposure

COMPOUND	IC50 [µM]
N#Cc1c(-c2noc(-c3ccccc3Cl)n2)no[n+]1[O-] [Compound 2j]	1.4
N#Cc1c(-c2ncon2)no[n+]1[O-] [Compound 2l, 3-Cyano-4-(1,2,4-oxadiazolyl)furoxan]	5.4
N#Cc1c(-c2noc(-c3ccco3)n2)no[n+]1[O-] [Compound 2k]	0.99
N#Cc1c(-c2noc(-c3ccc([N+](=O)[O-])cc3)n2)no[n+]1[O-] [Compound 2b]	2.7
N#Cc1c(-c2noc(-c3ccccc3)n2)no[n+]1[O-] [Compound 2a]	3.7
N#Cc1c(-c2noc(-c3cccc([N+](=O)[O-])c3)n2)no[n+]1[O-] [Compound 2c]	1.2
N#Cc1c(-c2noc(-c3ccccc3[N+](=O)[O-])n2)no[n+]1[O-] [Compound 2d]	0.87
N#Cc1c(-c2noc(-c3ccncc3)n2)no[n+]1[O-] [Compound 2e]	4.2
COc1ccc(-c2nc(-c3no[n+]([O-])c3C#N)no2)cc1OC [Compound 2i]	1.6
Cc1ccc(-c2nc(-c3no[n+]([O-])c3C#N)no2)cc1 [Compound 2g]	3.1
COc1ccc(-c2nc(-c3no[n+]([O-])c3C#N)no2)cc1 [Compound 2h]	2.9
